Target: C-C chemokine receptor type 2 (Homo sapiens)
Sequence (P41597 whole entry): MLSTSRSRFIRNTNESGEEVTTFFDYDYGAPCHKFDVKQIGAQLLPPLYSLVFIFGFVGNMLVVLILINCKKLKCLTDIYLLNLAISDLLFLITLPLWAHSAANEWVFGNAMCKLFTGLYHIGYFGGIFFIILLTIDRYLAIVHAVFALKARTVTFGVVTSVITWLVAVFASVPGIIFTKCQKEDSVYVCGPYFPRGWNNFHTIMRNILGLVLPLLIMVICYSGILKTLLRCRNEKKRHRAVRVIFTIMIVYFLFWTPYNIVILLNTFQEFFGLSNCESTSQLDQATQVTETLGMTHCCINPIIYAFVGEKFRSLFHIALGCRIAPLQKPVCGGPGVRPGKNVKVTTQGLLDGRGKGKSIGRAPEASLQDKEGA
Experiment: Displacement of [125I]MCP1 from human CCR2 expressed in CHO cells
Assay type: cell-based
pIC50: −log10 of the molar value.
observable: pIC50

What value of measured pIC50 is listed for CN(C)CCNC(C(=O)NCc1cc(C(F)(F)F)cc(C(F)(F)F)c1)c1ccco1 (stereo unspecified) ?
6.23

[I] O=C(NCc1cc(C(F)(F)F)cc(C(F)(F)F)c1)[C@@H](NCCN1CCCCCC1)c1ccccc1
[II] O=C(NCc1cc(C(F)(F)F)cc(C(F)(F)F)c1)[C@@H](NCCN1CCCCC1)c1ccccc1
Which record shows the lower pIC50: the first, I , or the second, II ? Mark your answer with the label of the selected entry.
I

[P] O=C(NCc1cc(C(F)(F)F)cc(C(F)(F)F)c1)[C@@H](NCCN1CCCCC1)c1ccc(F)cc1
[Q] CN(C)CCN[C@H](C(=O)NCc1cc(C(F)(F)F)cc(C(F)(F)F)c1)c1ccsc1
Which item exceeds the other in pIC50, P or Q ? Mark your answer with the label of the selected entry.
P
(P: 6.76, Q: 6.37)

[P] O=C(NCc1cc(C(F)(F)F)cc(C(F)(F)F)c1)C(NCCN1CCCCC1)c1ccccc1 (stereo unspecified)
[Q] CCN(CC)CCNC(C(=O)NCc1cc(C(F)(F)F)cc(C(F)(F)F)c1)c1ccccc1 (stereo unspecified)
Which item exceeds the other in pIC50, P or Q ? Mark your answer with the label of the selected entry.
P
(P: 6.47, Q: 6.17)
